assay: yeast display, Sf9 membrane polyspecificity reagent, FACS + sequencing; frameworks hold sequencing errors
result_type: polyreactivity (PSR sort gate)

In the examples that follow, each entry is paired with its recorded polyreactivity (PSR sort gate).
>  <seq_text>
QVQLVESGGGLVQAGGSLRLSCAASGRTFRYYVMGWYRQAPGKERELVAGISGSGGNTYYADSVKGRFTISRDNAKNTVYLQMNSLKPEDTAVYYCAARQRGSVGVPYNSWGQGTQVTVSW

>  <experimental_value>
high polyreactivity

$$$$
>  <seq_text>
QVQLVESGGGLVQAGGSLRLSCAASGIIFYGYAMGWYRQAPGKERDLVAAISSGGGTNYADSVKGRFTISRDNAKNTVYLQMNSLIPEDTAVYYCASRQYRRVKQGNYWGQGTQVTVSS

>  <experimental_value>
high polyreactivity

$$$$
>  <seq_text>
QVQLVESGGGLVQAGGSLRLSCAASGFNFDYYAMGWYRPAPGKVRELVAAITSRGGSTYYADSVKGRFTISRDNAKTTVYLQMNILKPEDTAVYYCSALRRSAEYNYWGQGTQVTVSS

>  <experimental_value>
high polyreactivity

$$$$
>  <seq_text>
QFQLVESGGGLVQAGGRLRLSCAASGVIFSYYAMGCYRQAPGKERELVAAISSSGSRTYYADSVKGRFTISRDNAKNTVYLQMNRLKPEDTAVYYCAARGAAKYGYWGQGTQVTVSS

>  <experimental_value>
high polyreactivity

$$$$
>  <seq_text>
QVQLVESGGGLVQAGGSLRLSCAASGRTLKYNAMGWYRQAPGKERELVAAISYSGSSTYYADSVKWRFTISRDNAKNTVYLQMNSLKPEDNAVYYCNSARPTAAYDYWGQGTQVTVSS

>  <experimental_value>
low polyreactivity

$$$$
>  <seq_text>
QVQLVESGGGLVQAGGSLRLSCAASGFTFAYYAMGWYRQAPGKETELVAAITSGGRTNYADSVKGRFTISRDNAKNTVYLQMNSVKPEDTAVDYCAKYRRGGSRHYSVFNHDYWGQGTQVTVSS

>  <experimental_value>
high polyreactivity

$$$$
>  <seq_text>
QVQLEESGGGLVQAGGSLRLSCAASGRIFPYYTMGWYRQAPGKERELVAAISWSGGSTYYADSVKGRFTISRDNAKNTVYLQMNSLKPEDTAVYYCNVRKVYRYQYRFEYWGQGTQVTVSS

>  <experimental_value>
high polyreactivity

$$$$
>  <seq_text>
QVQLVESGGGLVQAGGSLRLSSAASGSTFWVNTMGWYRQAPGKERELVAGSTSNGGSTSYADSVKGRFTITRDNAKNTVYLQKNSLKPEDTAVYYCNADTYPDYWAYLYDYWGQGTQVTVSS

>  <experimental_value>
low polyreactivity

$$$$

Prompt: What does the data say about its polyreactivity (PSR sort gate)? Entry: "QVQLVESGGGLVQAGGSLRLSCAASGSIFSWNAMGWYRQAPGKERELVAAISTRGSSTYYADSVKGRFTISRDNAKNTVYLQMNSLKPEDTAVYYCNAARTFPFYWGLRGSQRYDYWGQGTQVTVSS"
Response: high polyreactivity

Prompt: What does the data say about its polyreactivity (PSR sort gate)? Entry: "HVQHVESGGGLVHAGGSLRLRCAASGSIFVYYAMGWYRQAPGKERELVAAISGGGGRKYYADSVKGRFTISRDNANNTVYLQMNSLKPDDTAVYYCAARRATYPGGFYSWGQGSQVTVSS"
Response: high polyreactivity

Prompt: What does the data say about its polyreactivity (PSR sort gate)? Entry: "QVQLVESGARLVQAGGSLRLSCDASGITFFAYAIGWYRQAQGKERELVAAISCNTGRTYYADSVKGRFTISRDNAKITVYLQMNSLKPEDTAVYYCAKRGVGVGYNYWGQGTQVTVSS"
Response: high polyreactivity

Cited source for all entries: the nanobody polyreactivity screen of Harvey et al. (2022)
